Numbers sourced from patent US6534524B1.

Molecular target: unphosphorylated VEGF-R2Δ50 (FLVK) (Homo sapiens, UniProt P35968, DEL940-989/E990V)
Sequence (P35968 with tags, fused parts or gaps DEL940-989/E990V limits assumed): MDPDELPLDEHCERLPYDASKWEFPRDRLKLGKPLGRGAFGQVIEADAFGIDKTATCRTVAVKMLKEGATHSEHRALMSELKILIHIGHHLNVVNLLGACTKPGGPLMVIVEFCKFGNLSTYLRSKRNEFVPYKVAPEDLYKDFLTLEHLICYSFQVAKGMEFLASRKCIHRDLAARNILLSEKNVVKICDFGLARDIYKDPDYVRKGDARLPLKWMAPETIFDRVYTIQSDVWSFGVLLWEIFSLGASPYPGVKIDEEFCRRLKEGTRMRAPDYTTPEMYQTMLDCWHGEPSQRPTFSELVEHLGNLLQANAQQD
Test: VEGF-R2 coupled spectrophotometric assay, unphosphorylated VEGF-R2Δ50 (FLVK)
Conditions: FLVK Ki, Table 1
The entries below come with measured Ki values attached.
Hi! Could you send only the number? It should be in nM, unit omitted.

Consider the reported Ki for these molecules:
# molecule, parameter, testValue
data = [
    ("COc1cc(-c2ccc3c(-c4cc(OC)c(OC)c(OC)c4)n[nH]c3c2)ccc1O", "Ki", 2600),
    ("C=CCn1nc(C)cc1C(=O)Nc1cccc(C(=O)c2ccc3c(/C=C/c4ccccn4)n[nH]c3c2)c1", "Ki", 0.06),
    ("CC(C)(C)c1ccc(C(=O)Nc2cccc(C(=O)c3ccc4c(/C=C/c5ccccn5)n[nH]c4c3)c2)cc1 [Example 41(s)]", "Ki", 0.23),
    ("O=C(c1cccc(NC(=O)c2ccno2)c1)c1ccc2c(/C=C/c3ccccc3)n[nH]c2c1", "Ki", 0.72),
    ("COc1cc(C(=O)Nc2cccc(C(=O)c3ccc4c(/C=C/c5ccccn5)n[nH]c4c3)c2)cc(Cl)n1", "Ki", 0.08),
    ("C=C(c1cccc(NC(C)=O)c1)c1ccc2c(/C=C/c3ccccc3)n[nH]c2c1", "Ki", 1.6),
    ("O=C(NNC(=O)c1ccccc1Sc1ccc2c(/C=C/c3ccccn3)n[nH]c2c1)c1cccs1", "Ki", 0.04),
    ("Cc1cnc(C(=O)Nc2cccc(C(=O)c3ccc4c(/C=C/c5ccccc5)n[nH]c4c3)c2)s1", "Ki", 0.72),
]

For Cc1cccc(C(=O)Nc2cccc(N(C)c3ccc4c(/C=C/c5ccc6c(c5)OCO6)n[nH]c4c3)c2)c1 , what is its reported Ki? 0.34

For O=C(Nc1cc(Nc2ccc3c(/C=C/c4ccccc4)n[nH]c3c2)ccc1F)c1ccccc1 , what is its reported Ki? 0.25

For COc1cc(-c2ccc3c(-c4ccc5ccccc5c4)n[nH]c3c2)ccc1O , what is its reported Ki? 40

For C/C=C/C(=O)Nc1cccc(C(=O)c2ccc3c(/C=C/c4ccccn4)n[nH]c3c2)c1 , what is its reported Ki? 0.22

For CC(=O)c1ccc(C(=O)Nc2cccc(C(=O)c3ccc4c(/C=C/c5ccccn5)n[nH]c4c3)c2)s1 [Example 41(e)] , what is its reported Ki? 0.22

For O=C(Nc1cccc(C(=O)c2ccc3c(/C=C/c4ccccc4)n[nH]c3c2)c1)c1ccccc1 , what is its reported Ki? 0.49
